- TEST METHOD NOTES: xn = mol fraction of the nth substance listed
- CONDITION SET: 318.15 K; 100.5 kPa; Liquid; x1 = 0.85

{"COMPOUND": "CC(=O)OCCC(C)C [3-methylbutyl ethanoate] + CCO", "viscosity (mPa·s)": 0.609}
{"COMPOUND": "CCCCCC(=O)OCC [ethyl hexanoate] + CCO", "viscosity (mPa·s)": 0.694}
{"COMPOUND": "CCOC(=O)Cc1ccccc1 [ethyl phenylacetate] + CCO", "viscosity (mPa·s)": 1.498}
{"COMPOUND": "CCOC(=O)c1ccccc1 [ethyl benzoate] + CCO", "viscosity (mPa·s)": 1.241}
{"COMPOUND": "CCCC(=O)OCCC(C)C [3-methylbutyl butanoate] + CCO", "viscosity (mPa·s)": 0.792}
{"COMPOUND": "CCCCCCCC(=O)OCC [ethyl octanoate] + CCO", "viscosity (mPa·s)": 0.979}

----------
Entries annotated with measured mass density
- TEST METHOD NOTES: xn = mol fraction of the nth substance listed
- CONDITION SET: 298.15 K; 101 kPa; Liquid; x1 = 0.2

{"COMPOUND": "CCCCCCCC(=O)OCC [ethyl octanoate] + CCO", "mass density / kg/m3": 819.74}
{"COMPOUND": "CCCC(=O)OCCC(C)C [3-methylbutyl butanoate] + CCO", "mass density / kg/m3": 816.61}
{"COMPOUND": "CCCCCC(=O)OCC [ethyl hexanoate] + CCO", "mass density / kg/m3": 818.05}
{"COMPOUND": "CCOC(=O)Cc1ccccc1 [ethyl phenylacetate] + CCO", "mass density / kg/m3": 885.25}
{"COMPOUND": "CCOC(=O)c1ccccc1 [ethyl benzoate] + CCO", "mass density / kg/m3": 885.22}

----------
- TEST METHOD NOTES: xn = mol fraction of the nth substance listed
- CONDITION SET: 318.15 K; 101 kPa; Liquid; x1 = 0.65

{"COMPOUND": "CCOC(=O)Cc1ccccc1 [ethyl phenylacetate] + CCO", "RESULT UNITS": "kg/m3", "mass density": 968.75}
{"COMPOUND": "CCCC(=O)OCCC(C)C [3-methylbutyl butanoate] + CCO", "RESULT UNITS": "kg/m3", "mass density": 828.54}
{"COMPOUND": "CCOC(=O)c1ccccc1 [ethyl benzoate] + CCO", "RESULT UNITS": "kg/m3", "mass density": 977.35}
{"COMPOUND": "CCCCCCCC(=O)OCC [ethyl octanoate] + CCO", "RESULT UNITS": "kg/m3", "mass density": 832.99}
{"COMPOUND": "CCCCCC(=O)OCC [ethyl hexanoate] + CCO", "RESULT UNITS": "kg/m3", "mass density": 833.34}

----------
- TEST METHOD NOTES: xn = mol fraction of the nth substance listed
- CONDITION SET: 288.15 K; 101 kPa; Liquid; x1 = 0.1
Numbers after ± are expanded uncertainties.
Entries annotated with measured mass density
MEASURED PROPERTY: mass density

{"COMPOUND": "CCCCCC(=O)OCC [ethyl hexanoate] + CCO", "REPORTED MEASUREMENT": "812.99 ± 0.22 kg/m3"}
{"COMPOUND": "CCCC(=O)OCCC(C)C [3-methylbutyl butanoate] + CCO", "REPORTED MEASUREMENT": "812.38 ± 0.22 kg/m3"}
{"COMPOUND": "CCOC(=O)Cc1ccccc1 [ethyl phenylacetate] + CCO", "REPORTED MEASUREMENT": "852 ± 0.21 kg/m3"}
{"COMPOUND": "CCCCCCCC(=O)OCC [ethyl octanoate] + CCO", "REPORTED MEASUREMENT": "814.37 ± 0.22 kg/m3"}
{"COMPOUND": "CCOC(=O)c1ccccc1 [ethyl benzoate] + CCO", "REPORTED MEASUREMENT": "851.02 ± 0.2 kg/m3"}
